# assay.overview: PET hydrolysis, aromatic products released after 48 h (umol product/mg enzyme); higher = more PET depolymerization activity
# experimental.conditions: substrate: cryPow; 40 °C; pH 8.5
The sequences listed here are annotated with their PET hydrolysis.
measured.parameter: PET hydrolysis

sequence.record: AANPYQRGPAPTAASVAAVTGPFATASVSVPRGNGFGGGVIYYPTDTSQGTFGGLAISPGLNGTWPGIAWLGSRLASQGFIVFGIETNNLNDSPTSRGTQLLAALDYLAQRSSVRSRLDPGRLAVAGHSMGGGGALDAALRRPSLKAAIGNAPYLPSNTLAGNRVPTLIYAMQNDTLVPPSRLTSLYNTIPATTERAYLEITGAGHNYIGQPSTTLARTMIPWLKIFIDNDTRFSQFLCPLADQSGIRQYRSSCPLVPATTRALTAAAG [DP043]
measured.parameter: PET hydrolysis
measured.value: 115
//
sequence.record: GESPGAAVVAFAGHAKGPAPTEQSVRAQQGPFTTDKLVVPAQAGRGFNKGTIYYPDDTSQGTFGAVAVIPGFLEGESAISWLGPTLASHGFITLTLAPNATTDYPEPRSNQLLAAVDWLANQSPVKDRVDPNRLAVAGHSMGGGGTLIAASKNPALKAAVPLTPWNPHSNFSDVTVPTLIIGADRDFIAPTFMHASPMYNSLKAKQDQAYLKLKNADHFATNRYNATATAYTVSWLKRYVDEDTRYSQFLCPVKSGFQLTCPI [DP011]
measured.parameter: PET hydrolysis
measured.value: < 3
//
sequence.record: AAGYERGPNPTSSALEATRGPFSVASTNVSSLSASGFGGGTIYYPTDTSQGTFGGVVIAPGYTASKSSMAWLAERLASHGFVVFNIDTITRSDQPDSRGRQILAAADHLAEESSSTVRRRLDASRIGVMGHSMGGGGTLAAADSRPSLKAAVPLTPWHLDKSWGNVRVPTMIIGAENDTIAAVGSHSEPFYNSLSAAPEKAYLELNGASHFAPNSDNDTIAKYGISWMKRFVDEDTRYDQFLCPAPGRSTTIEEYRSSCPHS [DP086]
measured.parameter: PET hydrolysis
measured.value: < 3
